- systemTested: Monoglyceride lipase (Homo sapiens)
- methodNotes: Competitive inhibition of human recombinant MAGL using varying concentration of 4-nitrophenylacetate as substrate incubated for 30 mins by microplate reader assay
measurementLabel: Ki (nM)
Please respond with the number in nM and leave the unit unwritten.

>>> valuemeasured("O=C(c1ccc(Sc2ccccc2)cc1)C1CCN(C(=O)c2cc(O)ccc2F)CC1")
27
>>> valuemeasured("O=C(c1ccc(Cc2ccccc2)cc1)C1CCN(C(=O)c2cc(O)c(F)cc2F)CC1")
30
>>> valuemeasured("O=C(c1ccc(Sc2ccccc2)cc1)C1CCN(C(=O)c2cc(O)c(F)cc2F)CC1")
11

Could you now consider this next compound?
Request: Give the reported value of Ki for this record: O=C(c1ccc(Cc2ccccc2)cc1)C1CCN(C(=O)c2cc(O)ccc2F)CC1
Response: 37

###

- systemTested: Monoglyceride lipase (Mus musculus) (UniProt O35678)
- Sequence (O35678 whole entry): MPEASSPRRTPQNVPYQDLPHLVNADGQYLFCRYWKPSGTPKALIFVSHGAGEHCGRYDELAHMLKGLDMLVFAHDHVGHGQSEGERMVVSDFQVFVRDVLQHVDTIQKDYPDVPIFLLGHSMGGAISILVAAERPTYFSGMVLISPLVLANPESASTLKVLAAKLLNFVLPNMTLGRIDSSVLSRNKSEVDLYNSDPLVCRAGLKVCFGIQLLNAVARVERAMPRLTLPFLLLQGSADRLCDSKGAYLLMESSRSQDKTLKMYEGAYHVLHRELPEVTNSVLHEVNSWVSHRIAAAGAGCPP
- methodNotes: Inhibition of MAGL in mouse brain membrane at 10 uM preincubated for 25 mins followed by TAMRA-FP labeling addition and measured after 5 mins by competitive ABPP based analysis
- Type: cell membranes
- statedConditions: time 30.0 min
The source made the active and inactive calls. No cut-off for these calls is given here.
measurementLabel: inhibition

>>> valuemeasured("O=C(c1ccc(Sc2ccccc2)cc1)C1CCN(C(=O)c2cc(O)ccc2F)CC1")
"Active"
>>> valuemeasured("O=C(c1ccc(Cc2ccccc2)cc1)C1CCN(C(=O)c2cc(O)ccc2F)CC1")
"Active"
>>> valuemeasured("O=C(c1ccc(Cc2ccccc2)cc1)C1CCN(C(=O)c2cc(O)c(F)cc2F)CC1")
"Active"
>>> valuemeasured("O=C(c1ccc(Sc2ccccc2)cc1)C1CCN(C(=O)c2cc(O)c(F)cc2F)CC1")
"Active"

###

- methodNotes: Cytotoxicity against cancer-derived human organoids in HGSOC patient assessed as reduction in cell viability up to 100 uM measured after 96 hrs by Celltiter-glo luminescent assay
- Format: functional, Neoplasm
- statedConditions: dose microM <=100
measurementLabel: inhibition (INH) (%)
Please respond with the number in % and leave the unit unwritten.

Before answering, review these 4 worked examples.
>>> valuemeasured("O=C(c1ccc(Cc2ccccc2)cc1)C1CCN(C(=O)c2cc(O)ccc2F)CC1")
42
>>> valuemeasured("O=C(c1ccc(Sc2ccccc2)cc1)C1CCN(C(=O)c2cc(O)ccc2F)CC1")
42
>>> valuemeasured("O=C(c1ccc(Cc2ccccc2)cc1)C1CCN(C(=O)c2cc(O)c(F)cc2F)CC1")
18
>>> valuemeasured("COc1nn(-c2ccc(NC(=O)OCc3ccccc3)c(C)c2)c(=O)o1")
50

Request: Give the reported value of inhibition (INH) for this record: O=C(c1ccc(Sc2ccccc2)cc1)C1CCN(C(=O)c2cc(O)c(F)cc2F)CC1
Response: 42

###

- systemTested: Monoglyceride lipase (Homo sapiens)
- Sequence (Q99685 whole entry): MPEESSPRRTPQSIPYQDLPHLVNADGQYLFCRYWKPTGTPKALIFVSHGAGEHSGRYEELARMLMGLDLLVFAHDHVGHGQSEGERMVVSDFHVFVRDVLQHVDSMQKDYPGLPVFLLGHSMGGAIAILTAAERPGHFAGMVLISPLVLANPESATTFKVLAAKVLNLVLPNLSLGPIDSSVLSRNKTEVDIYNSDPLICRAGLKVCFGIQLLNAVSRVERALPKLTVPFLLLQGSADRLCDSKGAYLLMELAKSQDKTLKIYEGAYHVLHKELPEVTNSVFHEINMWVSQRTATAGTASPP
- methodNotes: Inhibition of human recombinant MAGL using 4-nitrophenylacetate as substrate incubated for 30 mins by microplate reader assay
Catalogue of IC50 values
Please respond with the number in µM and leave the unit unwritten.

Request: Give the reported value of IC50 for this record: O=C(c1ccc(S(=O)(=O)c2ccccc2)cc1)C1CCN(C(=O)c2cccc(O)c2)CC1
Response: 3.4

Request: Give the reported value of IC50 for this record: O=C(c1ccc(C2CCCCC2)cc1)C1CCN(C(=O)c2cccc(O)c2)CC1
Response: 0.129

Request: Give the reported value of IC50 for this record: CC(C)c1ccc(C(=O)C2CCN(C(=O)c3cc(O)ccc3C(F)(F)F)CC2)cc1
Response: 8.2

Request: Give the reported value of IC50 for this record: O=C(c1ccc(Cc2ccccc2)cc1)C1CCN(C(=O)c2cccc(O)c2)CC1
Response: 0.078

###

- Tested on: OVCAR-3
- methodNotes: Antiproliferative activity against human OVCAR3 cells as reduction in cell growth measured after 96 hrs by Celltiter-glo luminescent assay
- Type: functional, cell-based
- statedConditions: OVCAR-3, 96 h
Catalogue of IC50 values

Before answering, review these 4 worked examples.
>>> valuemeasured("O=C(c1ccc(Sc2ccccc2)cc1)C1CCN(C(=O)c2cc(O)ccc2F)CC1")
"> 100 µM"
>>> valuemeasured("O=C(c1ccc(Cc2ccccc2)cc1)C1CCN(C(=O)c2cc(O)c(F)cc2F)CC1")
"> 100 µM"
>>> valuemeasured("COc1nn(-c2ccc(NC(=O)OCc3ccccc3)c(C)c2)c(=O)o1")
"53 µM"
>>> valuemeasured("O=C(c1ccc(Sc2ccccc2)cc1)C1CCN(C(=O)c2cc(O)c(F)cc2F)CC1")
"> 100 µM"

Could you now consider this next compound?
Request: Under OVCAR-3: report IC50 of O=C(c1ccc(Cc2ccccc2)cc1)C1CCN(C(=O)c2cc(O)ccc2F)CC1 .
Response: 20.7 µM

###

Catalogue of inhibition values
- systemTested: UniProt Q8N2K0
- Sequence (whole entry): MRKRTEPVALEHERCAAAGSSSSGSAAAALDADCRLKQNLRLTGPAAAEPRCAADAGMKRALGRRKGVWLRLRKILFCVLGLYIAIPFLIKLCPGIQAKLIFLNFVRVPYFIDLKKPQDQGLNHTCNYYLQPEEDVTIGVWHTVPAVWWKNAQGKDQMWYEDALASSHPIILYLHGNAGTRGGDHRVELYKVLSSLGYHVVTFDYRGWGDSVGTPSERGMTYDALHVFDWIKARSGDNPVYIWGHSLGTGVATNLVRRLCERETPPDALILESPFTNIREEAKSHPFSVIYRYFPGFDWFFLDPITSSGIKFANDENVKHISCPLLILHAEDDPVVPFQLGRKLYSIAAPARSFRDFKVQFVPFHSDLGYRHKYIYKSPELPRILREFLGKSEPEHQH
- methodNotes: Inhibition of human ABHD12 expressed in HEK293 cells using [3H]2-OG as substrate at 10 uM preincubated for 30 mins followed by substrate addition and measured after 5 mins by liquid scintillation spectroscopy
- Assay type: cell-based
- statedConditions: time 35.0 min
Please respond with the number in % and leave the unit unwritten.

>>> valuemeasured("O=C(c1ccc(Sc2ccccc2)cc1)C1CCN(C(=O)c2cc(O)ccc2F)CC1")
26
>>> valuemeasured("O=C(c1ccc(Cc2ccccc2)cc1)C1CCN(C(=O)c2cc(O)c(F)cc2F)CC1")
28
>>> valuemeasured("O=C(c1ccc(Cc2ccccc2)cc1)C1CCN(C(=O)c2cc(O)ccc2F)CC1")
20

Request: Under UniProt Q8N2K0: report inhibition of O=C(c1ccc(Sc2ccccc2)cc1)C1CCN(C(=O)c2cc(O)c(F)cc2F)CC1 .
Response: 27

###

Catalogue of pIC50 values
- Tested on: MDA-MB-231
- methodNotes: Antiproliferative activity against human MDA-MB-231 cells as reduction in cell growth measured after 96 hrs by Celltiter-glo luminescent assay
- Assay type: functional, cell-based
- statedConditions: MDA-MB-231, 96 h
Lab note — pIC50 values are minus log10 of concentrations in M.

>>> valuemeasured("O=C(c1ccc(Cc2ccccc2)cc1)C1CCN(C(=O)c2cc(O)c(F)cc2F)CC1")
4.19
>>> valuemeasured("COc1nn(-c2ccc(NC(=O)OCc3ccccc3)c(C)c2)c(=O)o1")
4.08
>>> valuemeasured("O=C(c1ccc(Sc2ccccc2)cc1)C1CCN(C(=O)c2cc(O)ccc2F)CC1")
4.37
>>> valuemeasured("O=C(c1ccc(Sc2ccccc2)cc1)C1CCN(C(=O)c2cc(O)c(F)cc2F)CC1")
4.20

Request: Give the reported value of pIC50 for this record: O=C(c1ccc(Cc2ccccc2)cc1)C1CCN(C(=O)c2cc(O)ccc2F)CC1
Response: 4.60

###

- systemTested: UniProtKB Q9BV23
- Sequence (Q9BV23 whole entry): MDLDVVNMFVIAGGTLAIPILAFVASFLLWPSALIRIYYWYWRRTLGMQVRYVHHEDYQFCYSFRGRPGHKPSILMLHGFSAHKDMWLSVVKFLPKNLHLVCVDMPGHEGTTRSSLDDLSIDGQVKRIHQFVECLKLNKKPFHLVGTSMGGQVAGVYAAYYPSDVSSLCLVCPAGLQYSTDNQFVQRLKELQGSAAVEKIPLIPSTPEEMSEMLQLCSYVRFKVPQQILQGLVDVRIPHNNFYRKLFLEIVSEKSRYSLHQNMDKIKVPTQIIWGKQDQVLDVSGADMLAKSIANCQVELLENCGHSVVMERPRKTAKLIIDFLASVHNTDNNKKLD
- methodNotes: Inhibition of human ABHD6 expressed in HEK293 cells using [3H]2-OG as substrate at 10 uM preincubated for 30 mins followed by substrate addition and measured after 5 mins by liquid scintillation spectroscopy
- Format: cell-based
- statedConditions: time 35.0 min
measurementLabel: inhibition (%)
Please respond with the number in % and leave the unit unwritten.

Before answering, review these 3 worked examples.
>>> valuemeasured("O=C(c1ccc(Sc2ccccc2)cc1)C1CCN(C(=O)c2cc(O)c(F)cc2F)CC1")
18
>>> valuemeasured("O=C(c1ccc(Cc2ccccc2)cc1)C1CCN(C(=O)c2cc(O)ccc2F)CC1")
21
>>> valuemeasured("O=C(c1ccc(Cc2ccccc2)cc1)C1CCN(C(=O)c2cc(O)c(F)cc2F)CC1")
10

Could you now consider this next compound?
Request: Give the reported value of inhibition for this record: O=C(c1ccc(Sc2ccccc2)cc1)C1CCN(C(=O)c2cc(O)ccc2F)CC1
Response: 40
